FYI, the data here is from ChEMBL document CHEMBL5316361.

ASSAY: Therapeutic index, ratio of HC50 for sheep RBC to IC50 for cytotoxicity against human MDA-MB-231 cultured as 2D cells
Type: toxicity, cell-based
CONDITION: sheep (RBC) and human (MDA-MB-231), sheep red blood cells versus MDA-MB-231 cells, 2D culture; read-out: TI
Documented selectivity ratio across a set of molecules
RESULT_TYPE: selectivity ratio

INSERT INTO measurements (molecule, data_value) VALUES
  ('CCOC(=O)CCCCCCC/C=C\CCCCCCC(C)O[C@@H]1O[C@H](COC(C)=O)[C@@H](O)[C@H](O)[C@H]1O[C@@H]1O[C@H](COC(C)=O)[C@@H](O)[C@H](O)[C@H]1O (some centres not stated)', 4.63),
  ('CC(=O)OC[C@H]1O[C@H]2OC(C)CCCCCC/C=C\CCCCCCCC(=O)O[C@H]3[C@H](O)[C@@H](O)[C@H](O[C@@H]2[C@@H](O)[C@@H]1O)O[C@@H]3COC(C)=O (some centres not stated)', 8.93);

* * *

ASSAY: Therapeutic index, ratio of IC50 for cytotoxicity against human dermal fibroblast cultured as 2D cells to IC50 for cytotoxicity against human MDA-MB-231 cultured as 2D cells
Format: toxicity, cell-based
CONDITION: human dermal fibroblasts versus MDA-MB-231 cells, 2D culture, read-out: TI
RESULT_TYPE: selectivity ratio

INSERT INTO assay_data (compound, result_type, data_value) VALUES
  ('CC(=O)OC[C@H]1O[C@H]2OC(C)CCCCCC/C=C\CCCCCCCC(=O)O[C@H]3[C@H](O)[C@@H](O)[C@H](O[C@@H]2[C@@H](O)[C@@H]1O)O[C@@H]3COC(C)=O (some centres not stated)', 'selectivity ratio', 2.21),
  ('CCOC(=O)CCCCCCC/C=C\CCCCCCC(C)O[C@@H]1O[C@H](COC(C)=O)[C@@H](O)[C@H](O)[C@H]1O[C@@H]1O[C@H](COC(C)=O)[C@@H](O)[C@H](O)[C@H]1O (some centres not stated)', 'selectivity ratio', 1.59);
